Data provenance: patent US9730944B2

Assay: Cytostatic/cytotoxic effect in Hela Rh cells (rhinovirus methodology, MTS)
Conditions: human, CC50 (μg/ml), rhinovirus methodology of example 451
endpoint: CC50 (µg/mL)
Report as a plain number; the unit µg/mL is understood.

The compound identified as Nc1nc(N2CCN(C(=O)COc3ccc(Cl)cc3)CC2)c2nc(-c3ccc(F)cc3)sc2n1 registered its CC50 at 21.7

---

Test: in vitro
Conditions: human
Listed below: CC50 values for each entry.

The compound identified as Nc1nc(N2CCN(C(=O)COc3ccc(Cl)cc3)CC2)c2nc(CCOc3ccc(F)cc3)sc2n1 [Example 48] registered its CC50 at 11.7 µM

The compound identified as Cc1nc(N2CCN(C(=O)COc3ccc(Cl)cc3)CC2)c2nc(-c3ccc(F)cc3)sc2n1 [Example 47] registered its CC50 at > 50 µM

The compound identified as CCOc1nc(N)nc2sc(-c3ccc(F)cc3)nc12 [Example 30] registered its CC50 at > 373 µM

The compound identified as CC(c1ccc(F)cc1)c1nc2c(N3CCN(C(=O)COc4ccc(Cl)cc4)CC3)nc(N)nc2s1 (stereo not shown) [Example 66] registered its CC50 at > 50 µM

---

Listed below: CC50 values for each entry.
Test: in vitro
Settings: human
Report as a plain number; the unit µM is understood.

The compound identified as CCOC(=O)c1nc(N2CCN(C(=O)Nc3cccc(C)c3)CC2)c2cc(-c3ccc(F)cc3)sc2n1 registered its CC50 at 156

Further cases:
The compound identified as Cc1cccc(NC(=O)N2CCN(c3nc(N)nc4sc(-c5ccc(F)cc5)cc34)CC2)c1 registered its CC50 at 140

---

Listed below: EC50 values for each entry.
System: hRV-14
Assay: Rhinovirus type 14 antiviral assay in Hela Rh cells, MTS readout
Assay type: cell-based, Human rhinovirus
Conditions: Rhinovirus B, HRV14, HeLa Rh, Hela Rh cells; read-out: hRV-14 EC50
Report as a plain number; the unit µg/mL is understood.

The cases that follow already have their EC50 on record.
The molecule identified as CC(C)(C)OC(=O)N[C@@H]1CCN(c2nc(N)nc3sc(-c4ccc(F)cc4)cc23)C1 [Example 338] registered its EC50 at 1.11

The molecule identified as Nc1nc(N2CCN(C(=O)COc3cccc(Cl)c3)CC2)c2nc(CCc3ccc(F)cc3)sc2n1 [Example 228] registered its EC50 at 9.21

The molecule identified as CCCCCc1nc2c(N3CCN(C(=O)COc4ccc(Cl)cc4)CC3)nc(N)nc2s1 [Example 297] registered its EC50 at 0.4

The molecule identified as COc1ccc(OCC(=O)N2CCN(c3nc(N)nc4sc(Cc5ccc(F)cc5)nc34)CC2)cc1 [Example 230] registered its EC50 at 0.39

The molecule identified as COc1ccc(OCC(=O)N2CCN(c3nc(N)nc4sc(CCc5ccc(OC)c(OC)c5)nc34)CC2)cc1 [Example 257] registered its EC50 at 2.32

From here, focus on the item given below.
The molecule identified as COc1cccc(CCc2nc3c(N4CCN(C(=O)COc5ccc(Br)cc5)CC4)nc(N)nc3s2)c1 [Example 254] registered its EC50 at 1.23

---

Test: Cytotoxicity in HCV-1a replicon cells, Promega CellTiter-Glo cell viability assay
endpoint: CC50 at 72 h (µM)
Report as a plain number; the unit µM is understood.

The cases that follow already have their CC50 at 72 h on record.
The molecule identified as Nc1nc(N2CCN(C(=O)COc3ccc(Cl)cc3)CC2)c2nc(-c3ccc(Cl)cc3)[nH]c2n1 registered its CC50 at 72 h at 12.2

The molecule identified as Nc1nc(N2CCN(C(=O)COc3ccccc3)CC2)c2nc(-c3ccc(F)cc3)[nH]c2n1 registered its CC50 at 72 h at 20.4

The molecule identified as CC(C)(C)c1nc2c(N3CCN(C(=O)COc4ccc(Cl)cc4)CC3)nc(N)nc2[nH]1 registered its CC50 at 72 h at 29.1

Further cases:
The molecule identified as Nc1nc(N2CCN(C(=O)COc3ccc(Cl)cc3)CC2)c2nc(CCc3ccccc3)sc2n1 registered its CC50 at 72 h at 30.3

The molecule identified as Nc1nc(N2CCN(C(=O)Cc3cccs3)CC2)c2nc(-c3ccc(F)cc3)[nH]c2n1 registered its CC50 at 72 h at 9.6

The molecule identified as Nc1nc(N2CCN(C(=O)COc3ccc(Cl)cc3)CC2)c2nc(-c3ccc(C(F)(F)F)cc3)[nH]c2n1 registered its CC50 at 72 h at 10.6

The molecule identified as Cc1cccc(NC(=O)N2CCN(c3nc(N)nc4oc(CCc5ccc(F)cc5)nc34)CC2)c1 registered its CC50 at 72 h at 24.5

The molecule identified as CCC(c1ccc(F)cc1)c1nc2c(N3CCN(C(=O)COc4ccc(Cl)cc4)CC3)nc(N)nc2s1 (stereo not shown) registered its CC50 at 72 h at 25.9

The molecule identified as Nc1nc(N2CCN(C(=O)Nc3ccc(Cl)cc3)CC2)c2cc(-c3ccccc3)sc2n1 registered its CC50 at 72 h at 34.3

The molecule identified as Nc1nc(N2CCN(C(=O)COc3ccc(Cl)cc3)CC2)c2nc(C3(c4ccc(Cl)cc4)CC3)sc2n1 registered its CC50 at 72 h at 23.3

The molecule identified as Nc1nc(N2CC[C@@H](NC(=O)COc3ccc(Cl)cc3)C2)c2nc(CCc3ccc(F)cc3)sc2n1 registered its CC50 at 72 h at 30.4

The molecule identified as Nc1nc(N2CCN(C(=O)c3ccc(Cl)cc3)CC2)c2nc(CCc3cccs3)sc2n1 registered its CC50 at 72 h at 30.7

---

Tested on: hRV-45
Experiment: Rhinovirus type 45 antiviral assay in Hela Rh cells, MTS readout
Assay type: cell-based, Human rhinovirus
Settings: Human rhinovirus sp., HRV45, HeLa Rh, Hela Rh cells; read-out: hRV-45 EC50
Label key: rule met means EC50 under 5 µg/mL; rule not met means EC50 of 5 µg/mL or more.

Data request: Does Nc1nc(N2CCN(C(=O)COc3ccc(O)cc3)CC2)c2nc(CCc3ccc(F)cc3)sc2n1 have EC50 strictly under 5 µg/mL?
Data returned: rule met

Data request: Does Nc1nc(N2CCN(C(=O)COc3ccc(Br)cc3)CC2)c2nc(CCc3ccc(F)cc3)sc2n1 have EC50 strictly under 5 µg/mL?
Data returned: rule not met

Data request: Does COc1ccc(OCC(=O)N2CCN(c3nc(N)nc4sc(CCc5ccc(OC)c(OC)c5)nc34)CC2)cc1 have EC50 strictly under 5 µg/mL?
Data returned: rule not met

Data request: Does CC(=O)c1ccc(OCC(=O)N2CCN(c3nc(N)nc4sc(CCc5ccc(F)cc5)nc34)CC2)cc1 have EC50 strictly under 5 µg/mL?
Data returned: rule not met

Further cases:
Data request: Does Nc1nc(N2CCN(C(=O)COc3ccc(F)cc3)CC2)c2nc(-c3ccc(F)cc3)sc2n1 have EC50 strictly under 5 µg/mL?
Data returned: rule met

Data request: Does Nc1nc(N2CCN(C(=O)COc3ccc(Br)cc3)CC2)c2nc(-c3ccc(F)cc3)sc2n1 have EC50 strictly under 5 µg/mL?
Data returned: rule met

---

System: MT-4 cells
endpoint: CC50

Let me check: COCCCNc1nc(N)nc2sc(-c3ccc(F)cc3)nc12 [Example 32] , system MT-4 cells, measured CC50 is > 365 µM

---

Listed below: EC50 values for each entry.
System: hRV-41
Assay: Rhinovirus type 41 antiviral assay in Hela Rh cells, MTS readout
Type: cell-based, Human rhinovirus
Conditions: Human rhinovirus sp., HRV41, HeLa Rh, Hela Rh cells; read-out: hRV-41 EC50

The cases that follow already have their EC50 on record.
The compound identified as Nc1nc(N2CCN(C(=O)COc3cccc(Cl)c3)CC2)c2nc(CCc3ccc(F)cc3)sc2n1 registered its EC50 at > 50 µg/mL

The compound identified as Nc1nc(N2CCN(C(=O)COc3cccc([N+](=O)[O-])c3)CC2)c2nc(CCc3ccc(F)cc3)sc2n1 registered its EC50 at > 50 µg/mL

The compound identified as COC(=O)c1ccc(OCC(=O)N2CCN(c3nc(N)nc4sc(CCc5ccc(F)cc5)nc34)CC2)cc1 registered its EC50 at > 50 µg/mL

The compound identified as Nc1nc(N2CCN(C(=O)COc3ccc(Br)cc3)CC2)c2nc(-c3ccc(F)cc3)sc2n1 registered its EC50 at < 0.39 µg/mL

The compound identified as Nc1nc(N2CCN(C(=O)COc3ccc(Cl)cc3)CC2)c2nc(CCCCc3ccc(F)cc3)sc2n1 registered its EC50 at > 50 µg/mL

From here, focus on the item given below.
The compound identified as Nc1nc(N2CCN(C(=O)COc3ccc(F)cc3)CC2)c2nc(-c3ccc(F)cc3)sc2n1 registered its EC50 at < 0.39 µg/mL
